Parameter: cell viability. Scope: all listed entries.
# Test system: WHIM30 (cells of a triple-negative basal-like breast cancer xenograft)
# procedure details: cell viability (% of vehicle); higher = less cytotoxic
# measurement context: 10 µM; 72 h
endpoint: cell viability

* C=C1C(=CC=C2CCCC3(C)C2CCC3C(C)CCCC(C)C)CC(O)CC1O (stereo unspecified) | 97.5
* CC1C=CC=CC=CC=CC=CC=CC=CC(OC2OC(C)C(O)C(N)C2O)CC2OC(O)(CC(O)CC(O)C(O)CCC(O)CC(O)CC(=O)OC(C)C(C)C1O)CC(O)C2C(=O)O (stereo unspecified) | 127
* COc1ccc(CN(CCN(C)C)c2ccccn2)cc1.O=C(O)/C=C\C(=O)O [Mepyramine maleate] | 111
* Nc1ccc(S(N)(=O)=O)cc1 [Sulfanilamide] | 140
* Cc1cccc(Nc2ccncc2S(=O)(=O)NC(=O)NC(C)C)c1 [Torsemide] | 171
* COc1cccc2c1C(=O)c1c(O)c3c(c(O)c1C2=O)CC(O)(C(=O)CO)CC3OC1CC(N)C(O)C(C)O1.Cl (stereo unspecified) [Epirubicin HCl] | 50.8
* CO[C@H]1/C=C/O[C@@]2(C)Oc3c(C)c(O)c4c(c3C2=O)C2=NC3(CCN(CC(C)C)CC3)NC2=C(NC(=O)/C(C)=C\C=C\[C@H](C)[C@H](O)[C@@H](C)[C@@H](O)[C@@H](C)[C@H](OC(C)=O)[C@@H]1C)C4=O | 143
* CN(C)CCCC1(c2ccc(F)cc2)OCc2cc(C#N)ccc21.O=C(O)C(=O)O (stereo unspecified) [Escitalopram Oxalate] | 157
* OCC(O)C(O)C(O)C(O)CO (stereo unspecified) | 83.3
* COc1ccccc1Oc1c(NS(=O)(=O)c2ccc(C(C)(C)C)cc2)nc(-c2ncccn2)nc1OCCO.O [Bosentan Hydrate] | 184
* CC12CCC3=C4CCC(=O)C=C4CCC3C1CCC2(O)CC#N (stereo unspecified) | 139
* Cl.Clc1ccccc1CN1CCc2sccc2C1 [Ticlopidine HCl] | 89.7
* CNCCC(Oc1cccc2ccccc12)c1cccs1.Cl (stereo unspecified) [Duloxetine HCl] | 80.9
* CC12CCC3c4ccc(O)cc4CCC3C1CCC2O (stereo unspecified) | 74.2
* CNCCCC12CCC(c3ccccc31)c1ccccc12.Cl [Maprotiline HCl] | 44.8
* CN1CCC(=C2c3ccccc3CC(=O)c3sccc32)CC1.O=C(O)C=CC(=O)O [Ketotifen Fumarate] | 154
* Cc1cc(-n2c(=O)[nH]c(=O)n(C)c2=O)ccc1Oc1ccc(SC(F)(F)F)cc1 | 98.6
* CN1CCN(c2ccc(C(=O)/N=c3\[nH][nH]c4ccc(Cc5cc(F)cc(F)c5)cc34)c(NC3CCOCC3)c2)CC1 | 41.8
* Cl.NC(N)=NC(N)=NCCc1ccccc1 [Phenformin HCl] | 90.3
* CNC(=O)c1ccc(N2C(=S)N(c3ccc(C#N)c(C(F)(F)F)c3)C(=O)C2(C)C)cc1F [MDV3100 (Enzalutamide)] | 157
* CCN(CCCc1ccccc1)CCCc1ccccc1.O=C(O)CC(O)(CC(=O)O)C(=O)O [Alverine Citrate] | 102

----------
# Test system: HCI09 (cells of a triple-negative luminal androgen receptor type breast cancer xenograft)
# procedure details: cell viability (% of vehicle); higher = less cytotoxic
# measurement context: 10 µM; 72 h
Parameter: cell viability. Scope: all listed entries.
endpoint: cell viability

• Cc1cnc(C(=O)O)c[n+]1[O-] [Acipimox] = 98.5
• COC(=O)Nc1nc2ccc(C(=O)c3ccc(F)cc3)cc2[nH]1 [Flubendazole] = 103
• O=C([O-])c1ccccc1O.[Na+] [Sodium salicylate] = 100

----------
Parameter: cell viability. Scope: all listed entries.
# Test system: WHIM30
# procedure details: cell viability (% of vehicle); higher = less cytotoxic
# measurement context: 10 µM; 72 h
endpoint: cell viability

• CN1C2CCCC1CC(NC(=O)c1nn(C)c3ccccc13)C2 (stereo unspecified) [Granisetron] = 133
• COc1cc(OC)c(C=CS(=O)(=O)Cc2ccc(OC)c(NCC(=O)[O-])c2)c(OC)c1.[Na+] = 112
• CC1(O)CC(c2nc(-c3ccc4ccc(-c5ccccc5)nc4c3)c3c(N)nccn23)C1 (stereo unspecified) [Linsitinib] = 126
• C[C@H]1COc2c(N3CCN(C)CC3)c(F)cc3c(=O)c(C(=O)O)cn1c23 [Levofloxacin] = 132
• NC(=O)NN=Cc1ccc([N+](=O)[O-])o1 [Nitrofurazone] = 118
• OCCOCCN1CCN(C2=Nc3ccccc3Sc3ccccc32)CC1 [Quetiapine] = 131

----------
Parameter: cell viability. Scope: all listed entries.
# Tested on: HCI01 (cells of a triple-negative basal-like breast cancer xenograft)
# procedure details: cell viability (% of vehicle); higher = less cytotoxic
# measurement context: 10 µM; 72 h
endpoint: cell viability

* Cn1cnc([N+](=O)[O-])c1Sc1ncnc2nc[nH]c12 | 98.2
* CCOC(=O)n1ccn(C)c1=S | 90.9
* CNCC(O)c1ccc(O)c(O)c1.O=C(O)C(O)C(O)C(=O)O (centres undefined) [Epinephrine Bitartrate] | 90.1
* CS(=O)(=O)O.N#CC1(c2ccc(NC(=O)c3cccnc3NCc3ccncc3)cc2)CCCC1 | 140
* Cc1cn(C2C=CC(CO)O2)c(=O)[nH]c1=O (centres undefined) | 112
* CCCS(=O)(=O)Nc1ccc(F)c(C(=O)c2c[nH]c3ncc(-c4ccc(Cl)cc4)cc23)c1F | 118
* CC(=O)OC1(C(C)=O)CCC2C3CCC4=CC(=O)CCC4=C3C(c3ccc(N(C)C)cc3)CC21C (centres undefined) [Ulipristal acetate] | 97.9
* CCCCC(=O)OC1(C(=O)CO)C(C)CC2C3CCC4=CC(=O)C=CC4(C)C3(F)C(O)CC21C (centres undefined) [Betamethasone Valerate] | 120
* O=NN(CCCl)C(=O)NCCCl | 106
* CN(Cc1cnc2nc(N)nc(N)c2n1)c1ccc(C(=O)NC(CCC(=O)O)C(=O)O)cc1 (centres undefined) [Methotrexate] | 101
* [I-].[K+] [Potassium Iodide] | 98.5
* CC(C)(C)c1ccc(C(=O)CCCN2CCC(OC(c3ccccc3)c3ccccc3)CC2)cc1 | 83.8
* CC(C)(C)NC(=O)C1CC2CCCCC2CN1CC(O)C(Cc1ccccc1)NC(=O)C(CC(N)=O)NC(=O)c1ccc2ccccc2n1.CS(=O)(=O)O (centres undefined) [Saquinavir mesylate] | 101
* CCCc1ncc(C[n+]2ccccc2C)c(N)n1.Cl.[Cl-] [Amprolium HCl] | 129

----------
# System: HCI11 (cells of an ER-positive luminal breast cancer xenograft)
# procedure details: cell viability (% of vehicle); higher = less cytotoxic
# measurement context: 10 µM; 72 h
Parameter: cell viability. Scope: all listed entries.
endpoint: cell viability

• Nc1nc(=O)c2c(CCc3ccc(C(=O)NC(CCC(=O)O)C(=O)O)cc3)c[nH]c2[nH]1.O.[Na+] (centres undefined) [Pemetrexed disodium hemipenta hydrate] = 91.3
• CCOc1nc2cccc(C(=O)O)c2n1Cc1ccc(-c2ccccc2-c2nc(=O)o[nH]2)cc1 = 92
• Cl.Clc1ccccc1CN1CCc2sccc2C1 [Ticlopidine HCl] = 91.6
• COC(=O)C1CC2=CC(=O)CCC2(C)C23OC2CC2(C)C(CC[C@]24CCC(=O)O4)C13 (some centres undefined) = 90.1

----------
Parameter: cell viability. Scope: all listed entries.
# Tested on: HCI13 (cells of an ER-positive luminal breast cancer xenograft)
# procedure details: cell viability (% of vehicle); higher = less cytotoxic
# measurement context: 10 µM; 72 h
endpoint: cell viability

- COc1nc(C)nc(Cl)c1NC1=NCCN1: 98.9
- Cc1ccccc1C(=O)Nc1ccc(C(=O)N2CCCC(O)c3cc(Cl)ccc32)c(C)c1 (centres undefined): 101
- NC(=O)c1cnccn1 [Pyrazinamide]: 99.7
- CC(=O)OC12COC1CC(O)C1(C)C(=O)C(O)C3=C(C)C(OC(=O)C(O)C(NC(=O)OC(C)(C)C)c4ccccc4)CC(O)(C(OC(=O)c4ccccc4)C21)C3(C)C.O.O.O (centres undefined) [Docetaxel Trihydrate]: 101

----------
# System: UCD52 (cells of a triple-negative basal-like breast cancer xenograft)
# procedure details: cell viability (% of vehicle); higher = less cytotoxic
# measurement context: 10 µM; 72 h
endpoint: cell viability

- COCC1=C(C(=O)OC(C)OC(=O)OC(C)C)N2C(=O)[C@@H](NC(=O)/C(=N\OC)c3csc(N)n3)[C@H]2SC1 (stereo partly drawn): 99.2
- O=C1CCC(C(=O)N2CSCC2C(=O)O)N1 (stereo not drawn): 98.5
- Clc1ccc(C(Cn2ccnc2)OCc2ccsc2Cl)c(Cl)c1 (stereo not drawn): 60.2

----------
Parameter: cell viability. Scope: all listed entries.
# Test system: UCD52
# procedure details: cell viability (% of vehicle); higher = less cytotoxic
# measurement context: 1 µM; 72 h
endpoint: cell viability

- O=C(O)CO.[NH2-].[NH2-].[Pt+2]: 103
- Cl.OC(c1cc(C(F)(F)F)nc2c(C(F)(F)F)cccc12)C1CCCCN1 (stereo unspecified) [Mefloquine hydrochloride]: 66
- CC1(COc2ccc3c(c2)ncn3-c2ccc3cccc(N4CCC(N)CC4)c3n2)COC1: 138
- CC(C)c1nc(CN(C)C(=O)NC(C(=O)NC(Cc2ccccc2)CC(O)C(Cc2ccccc2)NC(=O)OCc2cncs2)C(C)C)cs1 (stereo unspecified): 82.1
- COC(=O)NC(C(=O)N1CCCC1c1ncc(-c2ccc(-c3ccc(-c4cnc(C5CCCN5C(=O)C(NC(=O)OC)C(C)C)[nH]4)cc3)cc2)[nH]1)C(C)C (stereo unspecified): 82.6
- CN1CCN(CCOc2cc(OC3CCOCC3)c3c(Nc4c(Cl)ccc5c4OCO5)ncnc3c2)CC1: 38.7
- CC(NCCCc1cccc(C(F)(F)F)c1)c1cccc2ccccc12 (stereo unspecified): 78.1
- CN1CCC(COc2cnc(-c3cccc(Cn4nc(-c5cccc(C#N)c5)ccc4=O)c3)nc2)CC1: 79.2
- CCC(=C(c1ccccc1)c1ccc(OCCN(C)C)cc1)c1ccccc1.O=C(O)CC(O)(CC(=O)O)C(=O)O [Tamoxifen Citrate]: 101
- COCCn1c2c([n+](Cc3cnccn3)c1C)C(=O)c1ccccc1C2=O.[Br-]: 21.3
- CO[C@H]1/C=C/O[C@@]2(C)Oc3c(C)c(O)c4c(O)c(c(/C=N/N5CCN(C6CCCC6)CC5)c(O)c4c3C2=O)NC(=O)/C(C)=C\C=C\[C@H](C)[C@H](O)[C@@H](C)[C@@H](O)[C@@H](C)[C@H](OC(C)=O)[C@@H]1C: 88.8
- CCN1CCN(Cc2ccc(Nc3ncc(F)c(-c4cc(F)c5nc(C)n(C(C)C)c5c4)n3)nc2)CC1.CS(=O)(=O)O: 46.7
- Nc1ccn(C2OC(CO)C(O)C2O)c(=O)n1 (stereo unspecified): 106
- CC(CCC(=O)O)C1CCC2C3CCC4CC(O)CCC4(C)C3CCC12C (stereo unspecified): 96.6
- Cc1nc(Nc2ncc(C(=O)Nc3c(C)cccc3Cl)s2)cc(N2CCN(CCO)CC2)n1: 39.7
- CNC(=O)c1cc(Oc2ccc(NC(=O)Nc3ccc(Cl)c(C(F)(F)F)c3)cc2)ccn1: 67.7
- CN(C)c1ccc(C(=C2C=CC(=[N+](C)C)C=C2)c2ccc(N(C)C)cc2)cc1.[Cl-]: 61.1
- Oc1c(Cl)cc(Cl)c2cccnc12: 96.7
- CCCCCCCCCCCC1=C(O)C(=O)C=C(O)C1=O: 86.8
- Nc1c(CC(=O)[O-])cccc1C(=O)c1ccccc1.O.[Na+] [Amfenac Sodium Monohydrate]: 93
- C=CC(=O)N1CCC(Oc2cc3c(Nc4ccc(Cl)c(Cl)c4F)ncnc3cc2OC)CC1: 36.5

Cited source: the supplement of paper PMC6992640
